- target-system: horseradish peroxidase (HRP) tagged delF508-CFTR (Homo sapiens, UniProt P13569, DEL508-508)
- Construct: expressed in transfected cells
- Sequence (P13569 with tags, fused parts or gaps DEL508-508): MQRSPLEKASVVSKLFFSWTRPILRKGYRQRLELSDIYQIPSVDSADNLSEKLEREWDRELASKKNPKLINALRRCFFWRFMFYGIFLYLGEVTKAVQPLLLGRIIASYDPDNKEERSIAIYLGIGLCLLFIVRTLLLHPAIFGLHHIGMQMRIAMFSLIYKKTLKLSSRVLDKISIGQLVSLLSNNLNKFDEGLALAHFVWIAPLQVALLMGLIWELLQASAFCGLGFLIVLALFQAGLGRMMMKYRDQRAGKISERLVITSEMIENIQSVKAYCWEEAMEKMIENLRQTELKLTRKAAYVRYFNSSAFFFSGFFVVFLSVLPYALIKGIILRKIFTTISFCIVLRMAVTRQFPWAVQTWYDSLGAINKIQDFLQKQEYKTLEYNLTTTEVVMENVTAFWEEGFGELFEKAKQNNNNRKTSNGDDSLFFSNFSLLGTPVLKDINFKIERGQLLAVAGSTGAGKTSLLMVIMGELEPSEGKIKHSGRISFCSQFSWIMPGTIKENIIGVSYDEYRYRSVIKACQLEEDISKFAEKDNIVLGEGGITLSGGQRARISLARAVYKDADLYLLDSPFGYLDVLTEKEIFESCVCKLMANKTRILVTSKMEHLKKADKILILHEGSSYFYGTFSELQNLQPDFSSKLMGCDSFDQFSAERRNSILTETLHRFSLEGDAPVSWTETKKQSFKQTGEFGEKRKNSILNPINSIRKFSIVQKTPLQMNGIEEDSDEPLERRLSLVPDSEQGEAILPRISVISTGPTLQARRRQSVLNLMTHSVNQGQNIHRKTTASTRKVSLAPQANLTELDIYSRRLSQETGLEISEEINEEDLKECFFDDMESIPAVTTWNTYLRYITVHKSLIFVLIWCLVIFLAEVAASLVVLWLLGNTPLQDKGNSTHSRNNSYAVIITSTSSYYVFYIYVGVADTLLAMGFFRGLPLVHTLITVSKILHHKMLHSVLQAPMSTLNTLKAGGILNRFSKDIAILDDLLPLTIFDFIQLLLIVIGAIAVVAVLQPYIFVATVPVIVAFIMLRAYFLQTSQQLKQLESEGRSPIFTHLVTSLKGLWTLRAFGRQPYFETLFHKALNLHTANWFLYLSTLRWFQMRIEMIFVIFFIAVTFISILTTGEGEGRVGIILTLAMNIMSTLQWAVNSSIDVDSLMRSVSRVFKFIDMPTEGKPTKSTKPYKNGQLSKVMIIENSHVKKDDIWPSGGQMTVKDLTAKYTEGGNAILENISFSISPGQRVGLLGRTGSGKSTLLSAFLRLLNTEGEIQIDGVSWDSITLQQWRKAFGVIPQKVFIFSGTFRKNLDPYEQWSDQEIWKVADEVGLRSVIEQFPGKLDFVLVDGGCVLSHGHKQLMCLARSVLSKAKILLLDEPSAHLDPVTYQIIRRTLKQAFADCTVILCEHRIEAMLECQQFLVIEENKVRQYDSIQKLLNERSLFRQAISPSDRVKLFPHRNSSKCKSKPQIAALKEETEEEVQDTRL
- experimental-protocol: Measurement of delF508-CFTR-HRP surface expression in CFBE41o- cells
- Type: cell-based
- condition-label: CFBE41o- cells; mean of at least two replicates; read-out: DelF508-CFTR-HRP EC50
assay-readout: EC50 (µM)
State the answer as a number, implicitly in µM.

1. Cc1ccccc1-c1nc(NS(=O)(=O)c2cccc(N3CCC[C@@](C)(C(=O)O)C3)n2)ccc1C1CC1    1.39
2. C[C@@]1(C(=O)O)CCCN(c2cccc(S(=O)(=O)Nc3ccc(C(F)(F)F)c(-c4ccccc4C4CCC4)n3)n2)C1    0.498
3. CC(C)Oc1ccc(Cl)cc1-c1nc(NS(=O)(=O)c2cccc(N3CCC(C)(C(=O)O)CC3)n2)ccc1C(F)(F)F    0.638

Entry under test: CC1(C(=O)O)CCCN(c2cccc(S(=O)(=O)Nc3ccc(Cl)c(-c4ccccc4C(C)(C)C)n3)n2)C1 (stereo not shown) . Its EC50 was 0.761

// EC50 lookup, molecule = `Cc1ccccc1-c1nc(NS(=O)(=O)c2cccc(N3CCC[C@@](C)(C(=O)O)C3)n2)ccc1C(F)(F)F` , result: 1.77

The recorded EC50 for `Cc1ccc(F)cc1-c1nc(NS(=O)(=O)c2cccc(N3CCC[C@](C)(C(=O)O)C3)n2)ccc1C(F)(F)F` is 2.3

# EC50 of CCC1(C(=O)O)CCCN(c2cccc(S(=O)(=O)Nc3ccc(Cl)c(-c4c(C)cccc4C)n3)n2)C1 (stereo not shown) = 1.59

----------
- target-system: horseradish peroxidase (HRP) tagged delF508-CFTR (Homo sapiens, UniProt P13569, DEL508-508)
- Construct: expressed in transfected cells
- experimental-protocol: Measurement of delF508-CFTR-HRP surface expression in CFBE41o- cells
- Type: cell-based
- condition-label: delF508-CFTR-HRP surface expression, CFBE41o- cells; read-out: DelF508-CFTR-HRP EC50
Structures can show the parent of a compound that is named as a salt.
assay-readout: EC50 (µM)
// return numeric value only (unit: µM, not printed)

Examples from the recorded data:
1) Cc1cccc(C(F)(F)F)c1-c1nc(NS(=O)(=O)c2cccc(N)n2)ccc1Cl [Example 53]    1.84
2) CCc1ccccc1-c1nc(NS(=O)(=O)c2ccnc(N3CCC(C)(C(=O)O)CC3)c2)ccc1C(F)(F)F [Example 374]    2.78
3) Cc1ccc(F)cc1-c1nc(NS(=O)(=O)c2ccnc(N3CC(O)C3)c2)ccc1Cl [Example 322]    2.61
4) Cc1ccccc1-c1nc(NS(=O)(=O)c2nc(N)ccc2F)ccc1Cl [Example 33]    2.2

Noted for Nc1cccc(S(=O)(=O)Nc2ccc(Cl)c(-c3c(F)cccc3Cl)n2)n1 [Example 39] : its EC50 reads 1.9

get_value(item= Cc1cccc(C)c1-c1nc(NS(=O)(=O)c2ccnc(N)c2)ccc1Cl [Example 4] , readout=EC50) returns 0.912

# EC50 of O=S(=O)(Nc1ccc(Cl)c(-c2cccc(F)c2Cl)n1)c1cccc(N2CCNCC2)n1 [Example 159, hydrochloride] = 4.42

# compound Cc1ccccc1-c1nc(NS(=O)(=O)c2cccc(N3CCC[C@H](C(=O)O)C3)n2)ccc1C(F)(F)F [Example 333] ; its EC50 = 1.95

Value source: patent US11066369B2
